percent moribund values, listed per item
# Test system: webbing clothes moth (Tineola bisselliella)
# Assay text: Biological test 14: persistence of treated filter paper in cardboard box, webbing clothes moth larvae
# Format: in vivo
# Particulars: 36 mg on filter paper, After 2 weeks
Record the value in %, omitting the unit from your answer.

>  <Compound>
Cc1ccc(COC(=O)[C@@H]2[C@H](/C=C(\Cl)C(F)(F)F)C2(C)C)o1 (racemic)

>  <Quantity measured>
percent moribund

>  <Reported result>
100

$$$$

Ask: Return percent moribund for the following compound: CC1(C)C(/C=C(\Cl)C(F)(F)F)C1C(=O)OCc1coc(Cc2ccccc2)c1 (stereo not shown) [A, reference compound]
Reply: 0

Ask: Return percent moribund for the following compound: CCCc1ccc(COC(=O)[C@@H]2[C@H](/C=C(\Cl)C(F)(F)F)C2(C)C)o1 (racemic)
Reply: 100

Ask: Return percent moribund for the following compound: CC1(C)C(/C=C(\Cl)C(F)(F)F)C1C(=O)OCc1ccc(C(F)F)o1 (stereo not shown) [B, reference compound]
Reply: 33

Ask: Return percent moribund for the following compound: CCc1ccc(COC(=O)[C@@H]2[C@H](/C=C(\Cl)C(F)(F)F)C2(C)C)o1 (racemic)
Reply: 100

Ask: Return percent moribund for the following compound: C#CCc1ccc(COC(=O)C2C(/C=C(\Cl)C(F)(F)F)C2(C)C)o1 (stereo not shown) [C, reference compound]
Reply: 63

Ask: Return percent moribund for the following compound: C=CCc1ccc(COC(=O)[C@@H]2[C@H](/C=C(\Cl)C(F)(F)F)C2(C)C)o1 (racemic)
Reply: 100
